system: Trace amine-associated receptor 1 (Homo sapiens, UniProt Q96RJ0)
Sequence (Q96RJ0 whole entry): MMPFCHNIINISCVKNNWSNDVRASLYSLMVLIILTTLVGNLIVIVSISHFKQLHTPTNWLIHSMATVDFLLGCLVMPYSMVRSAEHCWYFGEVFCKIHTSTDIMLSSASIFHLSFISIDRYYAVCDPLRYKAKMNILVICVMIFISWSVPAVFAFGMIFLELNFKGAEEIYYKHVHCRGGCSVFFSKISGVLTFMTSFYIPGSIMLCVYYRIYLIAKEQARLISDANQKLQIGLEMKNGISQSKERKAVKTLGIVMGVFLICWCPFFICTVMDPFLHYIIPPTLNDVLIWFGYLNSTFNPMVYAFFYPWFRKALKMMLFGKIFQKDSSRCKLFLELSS
assay: Fluorescence-based cell-based high throughput dose response assay to identify agonists of the human trace amine associated receptor 1 (TAAR1).
Assay type: functional
Calls of active or inactive are those of the source.
Valid outcomes are listed here; reply with one: yes (active), no (inactive)

Some solved entries appear below for comparison.
Cc1cc(C)n(C(CC(=O)N2CCc3ccccc3C2)C(=O)O)n1 (stereo not given)    yes
COc1ccc(Nc2cc(C)nc(N3CCOCC3)n2)cc1    yes
Cc1cccn2c(CNCC3OCCc4ccccc43)c(C(=O)N3CCCCC3)nc12 (stereo not given)    yes
CC(Nc1ccnc2cc(Cl)ccc12)c1ccc(S(N)(=O)=O)cc1 (stereo not given)    no

I'd appreciate the recorded outcome for CCCCCCCCN1C(=O)[C@H](CC(=O)NCCc2ccccc2OC)C[C@@]2(C(=O)OC)CCCCC=C12 from this test. yes

====

Measured IC50, listed per entry.
system: Caspase-3 (Homo sapiens);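 note: Dose-response selectivity test against caspase-3 for candidate inhibitors of sentrin-specific proteases (SENPs)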
Sequence (P42574 29-175 limits assumed): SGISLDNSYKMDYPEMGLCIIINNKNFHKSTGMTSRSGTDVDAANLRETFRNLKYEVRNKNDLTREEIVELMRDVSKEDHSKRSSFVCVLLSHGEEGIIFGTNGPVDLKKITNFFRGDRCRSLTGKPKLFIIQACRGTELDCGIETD
Sequence (P42574 176-277 limits assumed): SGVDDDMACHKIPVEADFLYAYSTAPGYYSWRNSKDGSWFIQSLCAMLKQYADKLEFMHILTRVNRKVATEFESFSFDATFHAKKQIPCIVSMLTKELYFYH
Assay type: functional
The source made the active and inactive calls.

CC(C)(C)c1cc[n+](C2=C([N-]S(=O)(=O)c3ccccc3)C(=O)c3ccccc3C2=O)cc1    76.7 µM (active)
CC(C)(C)c1ccc(OCc2nc(-c3ccccn3)no2)c(Br)c1    33.8 µM (active)
O=C1C(=O)c2ccccc2C(O)=C1CCCCl    37.8 µM (active)

Entry c1ccc(Nc2nc(-c3ccccc3)ns2)cc1 has what IC50? 18.8 µM (active)

Quick one: CNC(=S)Nc1ccc(-c2nc3ccc(C)cc3s2)cc1 7.31 µM (active)

Quick one: O=C1C=C(Nc2ccccc2C(=O)O)c2ccccc2C1=O 4.8 µM (active)

====

system: Carboxy-terminal domain RNA polymerase II polypeptide A small phosphatase 1 (Homo sapiens)
Sequence (Q9GZU7 whole entry): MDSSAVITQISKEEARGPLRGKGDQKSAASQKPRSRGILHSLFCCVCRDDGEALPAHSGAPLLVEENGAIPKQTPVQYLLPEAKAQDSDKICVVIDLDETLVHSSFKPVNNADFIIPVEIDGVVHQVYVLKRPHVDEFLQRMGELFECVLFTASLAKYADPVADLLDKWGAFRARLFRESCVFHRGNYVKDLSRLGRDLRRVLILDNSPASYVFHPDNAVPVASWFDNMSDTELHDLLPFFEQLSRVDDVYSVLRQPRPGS
assay: CTDSP1 inhibitors, concentration-response, biochemical, absorbance readout, ultra-high-throughput screen actives (AID 540297)
Type: functional
Calls of active or inactive are those of the source.
metric.name: IC50

Cc1sc2ncnc(SCC(=O)Nc3ncccc3O)c2c1C    5.35 µM (active)
Clc1cc(CSc2ccccc2)nc(-c2ccccc2)n1    14.1 µM (active)

Please look at the following compound next.
Entry Cc1c2cnn(CC(=O)Nc3c(F)c(F)cc(F)c3F)c(=O)c2c(C)n1Cc1ccccc1F has what IC50? 2.96 µM (active)

====

Measured EC50, listed per entry.
system: Nucleotide-binding oligomerization domain-containing protein 2 (Homo sapiens, UniProt Q9HC29)
Sequence (Q9HC29 whole entry, the tested form may be a part): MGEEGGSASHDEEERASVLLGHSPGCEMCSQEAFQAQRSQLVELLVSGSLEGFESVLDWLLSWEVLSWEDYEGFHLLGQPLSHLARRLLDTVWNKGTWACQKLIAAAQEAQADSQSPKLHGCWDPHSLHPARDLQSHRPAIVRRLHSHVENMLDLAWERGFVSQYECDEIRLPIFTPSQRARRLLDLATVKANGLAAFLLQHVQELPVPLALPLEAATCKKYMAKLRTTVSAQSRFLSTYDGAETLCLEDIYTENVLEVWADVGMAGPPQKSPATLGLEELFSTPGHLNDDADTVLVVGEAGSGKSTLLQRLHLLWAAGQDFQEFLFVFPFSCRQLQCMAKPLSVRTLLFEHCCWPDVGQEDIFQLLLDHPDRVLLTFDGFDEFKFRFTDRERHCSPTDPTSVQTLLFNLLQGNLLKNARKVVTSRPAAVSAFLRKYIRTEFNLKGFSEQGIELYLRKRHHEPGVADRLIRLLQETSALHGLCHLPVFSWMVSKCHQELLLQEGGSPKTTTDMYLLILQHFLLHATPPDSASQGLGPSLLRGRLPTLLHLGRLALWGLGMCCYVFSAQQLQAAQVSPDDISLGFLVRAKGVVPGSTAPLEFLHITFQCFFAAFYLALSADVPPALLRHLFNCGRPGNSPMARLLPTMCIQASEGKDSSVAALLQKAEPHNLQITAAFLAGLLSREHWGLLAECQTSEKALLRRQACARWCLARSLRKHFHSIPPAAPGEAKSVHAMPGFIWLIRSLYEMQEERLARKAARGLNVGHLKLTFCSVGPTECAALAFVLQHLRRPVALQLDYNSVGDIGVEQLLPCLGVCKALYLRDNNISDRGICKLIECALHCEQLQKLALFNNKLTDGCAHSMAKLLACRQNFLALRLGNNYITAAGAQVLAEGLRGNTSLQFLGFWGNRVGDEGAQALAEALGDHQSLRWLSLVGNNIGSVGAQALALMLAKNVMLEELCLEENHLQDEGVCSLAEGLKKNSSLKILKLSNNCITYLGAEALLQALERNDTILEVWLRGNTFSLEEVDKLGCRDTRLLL
assay: inhibition of NOD2-driven NF-kB reporter – cell-based, luminescence, uHTS, HEK293 (AID 1566)
Assay type: functional
The source made the active and inactive calls.

// worked examples, EC50 included
COc1ccc(Cl)cc1/C=C/c1ccc2cccc(O)c2n1    > 20 µM (inactive)
CC(=O)c1ccc(-n2c(C)c(C(C)=O)c3cc(O)ccc32)cc1    > 20 µM (inactive)

Entry O=C(c1ccc(S(=O)(=O)N2CCCCC2)cc1)N1CCN(CCN2C(=O)c3cccc4cccc(c34)C2=O)CC1 has what EC50? > 20 µM (inactive)

Quick one: O=C(Nc1ccncc1)c1c(F)cccc1F 4.55 µM (active)
